# testSystem: Protein cereblon/Tyrosine-protein kinase BTK (Homo sapiens, UniProt Q06187+Q96SW2)
# Sequence (Q06187 2-659 limits assumed): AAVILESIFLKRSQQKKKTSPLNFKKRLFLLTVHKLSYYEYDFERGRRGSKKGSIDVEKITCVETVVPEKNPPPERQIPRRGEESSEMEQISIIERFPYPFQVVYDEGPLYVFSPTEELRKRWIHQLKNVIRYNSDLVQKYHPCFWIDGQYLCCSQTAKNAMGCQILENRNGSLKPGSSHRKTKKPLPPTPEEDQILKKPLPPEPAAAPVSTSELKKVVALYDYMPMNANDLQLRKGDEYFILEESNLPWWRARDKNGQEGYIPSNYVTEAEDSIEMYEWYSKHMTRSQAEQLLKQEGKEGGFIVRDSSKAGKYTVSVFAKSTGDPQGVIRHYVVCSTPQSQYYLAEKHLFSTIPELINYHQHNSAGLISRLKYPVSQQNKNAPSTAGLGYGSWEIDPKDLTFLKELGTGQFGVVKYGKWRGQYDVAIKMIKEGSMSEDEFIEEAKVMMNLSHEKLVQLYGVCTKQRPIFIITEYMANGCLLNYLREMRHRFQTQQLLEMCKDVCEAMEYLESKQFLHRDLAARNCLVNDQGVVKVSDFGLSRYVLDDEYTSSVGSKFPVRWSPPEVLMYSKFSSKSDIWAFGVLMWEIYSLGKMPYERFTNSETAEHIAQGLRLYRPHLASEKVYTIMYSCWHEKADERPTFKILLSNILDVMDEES
# Sequence (Q96SW2 whole entry partner): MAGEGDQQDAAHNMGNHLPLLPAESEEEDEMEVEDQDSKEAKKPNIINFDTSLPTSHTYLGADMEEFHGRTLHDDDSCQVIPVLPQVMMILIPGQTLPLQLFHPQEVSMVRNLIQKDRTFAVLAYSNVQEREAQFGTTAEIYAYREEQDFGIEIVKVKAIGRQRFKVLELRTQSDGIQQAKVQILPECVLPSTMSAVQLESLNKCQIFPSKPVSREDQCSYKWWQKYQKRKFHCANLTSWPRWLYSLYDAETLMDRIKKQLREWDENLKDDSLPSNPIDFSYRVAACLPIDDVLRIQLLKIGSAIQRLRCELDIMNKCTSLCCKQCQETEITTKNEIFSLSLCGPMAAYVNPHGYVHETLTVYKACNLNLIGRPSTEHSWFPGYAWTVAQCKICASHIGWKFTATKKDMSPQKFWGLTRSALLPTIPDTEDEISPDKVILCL
# experimentNotes: PROTAC activity at CRBN/BTK in human JeKo-1 cells assessed as BTK degradation at 10 nM incubated for 24 hrs by Western blot analysis relative to control
# Format: cell-based
measurementKind: Activity (%)
State just the number; it will be interpreted in %.

Here's what some known entries look like.
{"columns": ["compound", "Activity (%)"],
 "data": [
  ["O=C1CCC(N2Cc3cc(N4CCC(CCN5CCC(CC(=O)NC6CCN(c7ncnc8[nH]cc(C(=O)c9ccc(Oc%10ccccc%10)cc9Cl)c78)CC6)CC5)CC4)c(F)cc3C2=O)C(=O)N1 (stereo not drawn)", 56],
  ["O=C1CCC(N2Cc3cc(N4CCC(CCN5CCC(CC(=O)N[C@H]6CC[C@@H](Nc7ncnc8[nH]cc(C(=O)c9ccc(F)cc9Cl)c78)CC6)CC5)CC4)c(F)cc3C2=O)C(=O)N1 (stereo partly drawn)", 11]
]}

Turning now to a further record.
Prompt: May I ask what Activity has been recorded for O=C1CCC(c2ccc(N3CCC(CN4CCC(CC(=O)N[C@H]5CC[C@@H](Nc6ncnc7[nH]cc(C(=O)c8ccc(Oc9ccccc9)cc8)c67)CC5)CC4)CC3)cc2)C(=O)N1 (stereo partly drawn) ?
Response: 50

---

# experimentNotes: Microsomal stability in human liver microsomes assessed as compound remaining measured up to 60 mins by LC-MS/MS analysis
# Assay type: ADME, Microsome
# experimentalConditions: read-out: Stability
Measured remaining at 1 h of individual entries
Give your result in % as a bare value.

// worked examples, remaining at 1 h included
{"columns": ["compound", "unitText", "remaining at 1 h"],
 "data": [
  ["O=C1CCC(c2ccc(N3CCC(CN4CCC(CC(=O)N[C@H]5CC[C@H](Nc6ncnc7[nH]cc(C(=O)c8ccc(Oc9ccccc9)cc8)c67)C5)CC4)CC3)nc2)C(=O)N1 (some centres undefined)", "%", 94.6],
  ["O=C1CCC(c2ccc(N3CCC(CN4CCC(CC(=O)N[C@H]5CC[C@H](Nc6ncnc7[nH]cc(C(=O)c8ccc(Oc9ccccc9)cc8)c67)C5)CC4)CC3)cc2)C(=O)N1 (some centres undefined)", "%", 96.8]
]}

Prompt: Bench note: what remaining at 1 h did O=C1CCC(c2ccc(N3CCC(CCN4CCC(CC(=O)N[C@H]5CC[C@H](Nc6ncnc7[nH]cc(C(=O)c8ccc(Oc9ccccc9)cc8)c67)C5)CC4)CC3)cc2)C(=O)N1 (some centres undefined) show?
Response: 99.8

Prompt: Query: remaining at 1 h; subject: O=C1CCC(c2ccc(N3CCC(CCN4CCC(CC(=O)N[C@H]5CC[C@H](Nc6ncnc7[nH]cc(C(=O)c8ccc(Oc9ccccc9)cc8)c67)C5)CC4)CC3)nc2)C(=O)N1 (some centres undefined)
Response: 79.3

---

# testSystem: Protein cereblon/Tyrosine-protein kinase BTK (Homo sapiens, UniProt Q06187+Q96SW2)
# experimentNotes: PROTAC activity at CRBN/BTK in human JeKo-1 cells assessed as BTK degradation at 100 nM incubated for 24 hrs by Western blot analysis relative to control
# Format: cell-based
measurementKind: Activity (%)
Give your result in % as a bare value.

Record excerpt, results attached:
{"columns": ["compound", "testSystem", "readoutValue"],
 "data": [
  ["O=C1CCC(c2ccc(N3CCC(CN4CCC(CC(=O)N[C@H]5CC[C@@H](Nc6ncnc7[nH]cc(C(=O)c8ccc(Oc9ccccc9)cc8)c67)CC5)CC4)CC3)cc2)C(=O)N1 (stereo not given in full)", "Protein cereblon/Tyrosine-protein kinase BTK (Homo sapiens, UniProt Q06187+Q96SW2)", 74],
  ["O=C1CCC(N2Cc3cc(N4CCC(CCN5CCC(CC(=O)N6CCC(Nc7ncnc8[nH]cc(C(=O)c9ccc(Oc%10ccccc%10)cc9Cl)c78)CC6)CC5)CC4)c(F)cc3C2=O)C(=O)N1 (stereo not given)", "Protein cereblon/Tyrosine-protein kinase BTK (Homo sapiens, UniProt Q06187+Q96SW2)", 94],
  ["O=C1CCC(N2Cc3cc(N4CCC(CCN5CCC(CC(=O)N[C@H]6CC[C@H](Nc7ncnc8[nH]cc(C(=O)c9ccc(Oc%10ccccc%10)cc9Cl)c78)C6)CC5)CC4)c(F)cc3C2=O)C(=O)N1 (stereo not given in full)", "Protein cereblon/Tyrosine-protein kinase BTK (Homo sapiens, UniProt Q06187+Q96SW2)", 98],
  ["O=C1CCC(c2ccc(N3CCC(CCN4CCC(CC(=O)N[C@H]5CC[C@H](Nc6ncnc7[nH]cc(C(=O)c8ccc(Oc9ccccc9)cc8)c67)C5)CC4)CC3)cc2)C(=O)N1 (stereo not given in full)", "Protein cereblon/Tyrosine-protein kinase BTK (Homo sapiens, UniProt Q06187+Q96SW2)", 85]
]}

As a next step, examine the compound that follows.
Prompt: Using the record for O=C1CCC(c2ccc(N3CCC(CCN4CCC(CCN[C@H]5CC[C@@H](Nc6ncnc7[nH]cc(C(=O)c8ccc(Oc9ccccc9)cc8)c67)CC5)CC4)CC3)cc2)C(=O)N1 (stereo not given in full) , report its Activity.
Response: 39

Values were extracted from ChEMBL document CHEMBL6134821.
